Recorded measurements of growth inhibition, one per entry
assay: NCI Yeast Anticancer Drug Screen. Data for the bub3 strain (AID 167); conditions: S. cerevisiae bub3 mutant strain, at 50.0 µM, active compounds read high
About 79,000 compounds went through this panel and 15% of them were active in at least one assay; those are over-represented in the sample as a whole. The source made the active and inactive calls. Cut-off read from the data, not from the text of the source: active = growth inhibition above about 70%; inactive = the rest.
MEASURE_NAME: growth inhibition

- Cc1cc(Br)c(O)c(-c2cscn2)c1: 16.8% (inactive)
- O=C(NNS(=O)(=O)c1ccccc1)c1cccc([N+](=O)[O-])c1: 5% (inactive)
- OCCOc1ccc(Cl)cc1Cl: -0.8% (inactive)
- CC12C(=O)NC(c3ccccc3)(c3ccccc31)C1C(=O)N(C(N)=O)C(=O)C12 (centres undefined): -15.2% (inactive)
- C=CCN1CC2CON(C(=O)C(OC)(c3ccccc3)C(F)(F)F)C2C1C(C)C (centres undefined): 24.2% (inactive)
- c1ccc(C(=C2CCCCCCCCCCCCC2)c2ccccc2)cc1: 25% (inactive)
- CCN(CC)C(=O)COc1ccc(Cl)c(C)c1: 33.6% (inactive)
- O=C(O)CCC1CCCO1 (centres undefined): 15.3% (inactive)
- O=C(c1ccccc1)C1N=NN(Cc2ccccc2[N+](=O)[O-])C1C(=O)c1ccccc1 (centres undefined): -1.45% (inactive)
- COC(=O)c1c(C)ccc(C)c1C(=O)c1c(C)cc(C)cc1C: 24.3% (inactive)
- CCN(CC)CCNc1ccc2ncn3c4c(OC)ccc(OC)c4c(=O)c1c23: -47% (inactive)
- CC12CCC(C/C1=N\N=C(N)N)C2(C)C (centres undefined): -5.05% (inactive)
- CC1(C)OCC2OC(O)C(OS(=O)(=O)c3ccc([N+](=O)[O-])cc3)C2O1 (centres undefined): -10.9% (inactive)
- CCOC(=O)C1=C(C)OC(=O)CC1C (centres undefined): -23.6% (inactive)
- O=[N+]([O-])c1cc2c3ccccc3ccc2c2ccccc12: 19.6% (inactive)
- COc1nc2c(c(O)c(C)c(=O)n2OC2OCC(OC(C)=O)C(OC(C)=O)C2OC(C)=O)c(=O)n1C (centres undefined): -10.3% (inactive)
- Cc1ccc(-c2cc(=O)c3cc(C)c(C)c(C#N)c3o2)cc1: -22.4% (inactive)
- COc1ccc(C2OC23CC(C)(C)c2ccccc2C3=O)cc1 (centres undefined): 16.3% (inactive)
- COc1ccc(SC/C(=N\NOS(=O)(=O)c2ccc(C)cc2)c2ccccc2)cc1: 61% (inactive)
- Clc1ccc(C=NC23CC4CC(CC(C4)C2)C3)cc1Cl: 7.55% (inactive)
- CC(=O)OCC1OC(n2cc(F)c(=O)[nH]c2=O)C(NC(=O)N(CCCl)N=O)C(OC(C)=O)C1OC(C)=O (centres undefined): 0.9% (inactive)
- c1ccc2sc(SCSc3nc4ccccc4s3)nc2c1: -1.05% (inactive)
- O=C(O)c1cccc(C#Cc2ccccc2)c1: 4.55% (inactive)
- CC(O)COc1ccc(C(C)(C)C)cc1 (centres undefined): 10.8% (inactive)
- O=C1CCCCCCN1: -17.2% (inactive)
- CCCCCCCC[N+](C)(C)C: -28.7% (inactive)
- Nc1nc(SCC(=O)O)[nH]c(=O)c1N: -0.25% (inactive)
- Oc1c(Br)cc(Br)cc1/C=N/c1nc(-c2ccccc2)cs1: 97.4% (active)
- CCN(CC)c1ccc2c(c1)Oc1cc(N(CC)CC)ccc1C2c1ccccc1C(=O)O: 3.6% (inactive)
- O=COC(Cc1ccccc1)c1ccc2c(c1)OCO2 (centres undefined): 30.6% (inactive)
- COc1ccc(C(Nc2ccccn2)c2cc(C(C)(C)C)cc(C(C)(C)C)c2O)cc1 (centres undefined): 41.9% (inactive)
- CCn1c(O)c(C=Nc2ccccc2)s/c1=N/Nc1nc(C)c(C(C)=O)s1: 42.9% (inactive)
- COC(=O)COc1cc2c(cc1C(C)c1ccc(O)cc1)OCO2 (centres undefined): 99.2% (active)
- CCC(CCC#N)(CCC#N)C(=O)c1ccc(C)s1: 0.1% (inactive)
